Values compiled from PubChem BioAssay (NCI).

test system: 786-0 renal; test: NCI tumour cell line growth inhibition, 48 h
endpoint.label: TGI

Example molecules with recorded TGI:
O=C(/C=C/Sc1cc(C(F)(F)F)cc(C(F)(F)F)c1)c1ccc(Cl)cc1; 9.84 µM
NC(=O)N/N=C1/CCC(O)CC1CC(=O)O (stereo not given); > 100 µM
CC(C)=NN/C(=N\S(=O)(=O)c1ccc(Oc2cccc(Cl)c2C#N)cc1)Nc1ccc(Cl)cc1; > 100 µM
COc1cc2c(cc1OC)[C@H](C)N1CCc3cc(OC)c(OC)cc3[C@@H]1C2; > 100 µM
CCOc1cc2c(C(=O)CC)c(O)ccc2o1; > 100 µM
NNC(=O)C1CCC(=O)N1S(=O)(=O)c1ccccc1 (stereo not given); > 100 µM
NC(=O)CN(CC(N)=O)C(N)=O; > 100 µM
Cc1ccccc1C1OC(=O)c2ccc3ccccc3c21 (stereo not given); 18.9 µM
Cc1cc(NCCCN(C)C)c2ccc3c(ccc4c(NCCCN(C)C)cc(C)nc43)c2n1; 0.506 µM
CCOC(=O)CC[C@H](NC(=O)c1nc[nH]c1[N+](=O)[O-])C(=O)OCC; > 100 µM

Next up:
-- ask Could you tell me which TGI is on file for O=c1cnn(C2OC(CO)C(O)C2O)c(=S)[nH]1 (stereo not given) ?
-- reply > 100 µM

====

test system: NCI/ADR-RES ovarian; assay: NCI tumour cell line growth inhibition, 48 h
endpoint.label: TGI

O=C(C/C(=N/O)C(=O)NC1=C(Cl)C(=O)c2ccccc2C1=O)CC(c1ccccc1)c1c(O)c2ccccc2oc1=O (centres undefined); > 100 µM
Cc1ccc(S(=O)(=O)n2c3ccc(Br)cc3c3nc4ccccc4nc32)cc1; > 100 µM
COC(C(=O)NN)c1ccccc1 (centres undefined); > 100 µM
NS(=O)(=O)c1ccc(/C=C/c2ccc(F)cc2)cc1; > 100 µM
CCCCOC(=O)C(NC(C(=O)OCCCC)c1cc(C(C)(C)C)c(O)c(C(C)(C)C)c1)c1cc(C(C)(C)C)c(O)c(C(C)(C)C)c1 (centres undefined); > 100 µM

-- ask Any idea what TGI came out for `O=c1[nH]nc(-c2ccccc2)n1/N=C\c1ccccc1` on NCI/ADR-RES ovarian?
-- reply > 100 µM

-- ask Same question for `O=C1NNC2(C(=O)N1)c1ccccc1-c1ccccc12` please.
-- reply > 10 µM

-- ask Request: `O=C(NCCCCCCCCCCCCNC(=O)Nc1cccc2ccccc12)Nc1cccc2ccccc12`
-- reply 60.6 µM

====

test system: SNB-75 CNS; test: NCI tumour cell line growth inhibition, 48 h; in the data active = GI50 below about 0.43 µM; inactive = the rest
Hi! Could you answer with just one of these? active, inactive

Some entries whose results are on file:
C=Cc1cncc(C#N)c1CCc1c(C#N)cncc1C=C; inactive
CCNCCCn1c2c(c3ccc(Cl)cc3c1=O)C(=O)c1cc(OC)cnc1-2; active

As a next step, examine the compound that follows.
-- ask Hey, what did the test say about C#CC#CC#CC#CC#CC#CC#CC#CCC1OCC(COC(=O)O[C@@H](C(=O)O[C@H]2C[C@@]3(O)[C@@H](OC(=O)c4ccccc4)[C@@H]4[C@]5(OC(C)=O)CO[C@@H]5C[C@H](O)[C@@]4(C)C(=O)[C@H](OC(C)=O)C(=C2C)C3(C)C)[C@@H](NC(=O)c2ccccc2)c2ccccc2)O1 (stereo partly drawn) ?
-- reply active
